For each entry below, report its IC50 value.
measured-target: Bcl-2-like protein 1 (Homo sapiens, UniProt Q07817)
Sequence (Q07817 whole entry): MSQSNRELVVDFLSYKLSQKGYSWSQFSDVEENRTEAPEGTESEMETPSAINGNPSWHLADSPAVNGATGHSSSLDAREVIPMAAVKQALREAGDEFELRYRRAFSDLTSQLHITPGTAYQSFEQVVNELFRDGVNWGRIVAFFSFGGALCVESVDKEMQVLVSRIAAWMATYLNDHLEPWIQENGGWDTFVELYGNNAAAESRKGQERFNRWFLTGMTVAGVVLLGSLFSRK
assay-name: Displacement of Bad-derived peptide from Bcl-xL by FPA in presence of 10% human serum
Numbers only, in nM.

Recorded IC50, per entry:
smiles_text=CN(C)CC[C@H](CSc1ccccc1)Nc1ccc(S(=O)(=O)NC(=O)c2ccc(N3CCC(=Cc4ccccc4-c4ccccc4)CC3)cc2)cc1[N+](=O)[O-] assay_result=83
smiles_text=CN(C)CC[C@H](CSc1ccccc1)Nc1ccc(S(=O)(=O)NC(=O)c2ccc(N3CCC(=Cc4ccccn4)CC3)cc2)cc1[N+](=O)[O-] assay_result=700
smiles_text=CN(C)CC[C@H](CSc1ccccc1)Nc1ccc(S(=O)(=O)NC(=O)c2ccc(N3CCC(=Cc4ccccc4C(F)(F)F)CC3)cc2)cc1[N+](=O)[O-] assay_result=300
smiles_text=CN(C)CC[C@H](CSc1ccccc1)Nc1ccc(S(=O)(=O)NC(=O)c2ccc(N3CCC(C)(C)CC3)cc2)cc1[N+](=O)[O-] assay_result=360
smiles_text=Cc1ccccc1CN1CCN(c2ccc(C(=O)NS(=O)(=O)c3ccc(N[C@H](CCN(C)C)CSc4ccccc4)c([N+](=O)[O-])c3)cc2)CC1 assay_result=140
smiles_text=CCCCCC1(OC)CCN(c2ccc(C(=O)NS(=O)(=O)c3ccc(N[C@H](CCN(C)C)CSc4ccccc4)c([N+](=O)[O-])c3)cc2)CC1 assay_result=312
smiles_text=CN(C)CC[C@H](CSc1ccccc1)Nc1ccc(S(=O)(=O)NC(=O)c2ccc(N3CCC(=Cc4cccnc4)CC3)cc2)cc1[N+](=O)[O-] assay_result=2800
smiles_text=CN(C)CC[C@H](CSc1ccccc1)Nc1ccc(S(=O)(=O)NC(=O)c2ccc(N3CCC(=Cc4ccccc4Cl)CC3)cc2)cc1[N+](=O)[O-] assay_result=700
smiles_text=CN(C)CC[C@H](CSc1ccccc1)Nc1ccc(S(=O)(=O)NC(=O)c2ccc(N3CCN(Cc4ccccc4-c4cccnc4)CC3)cc2)cc1[N+](=O)[O-] assay_result=81
smiles_text=COC1(CC2CCCCC2)CCN(c2ccc(C(=O)NS(=O)(=O)c3ccc(N[C@H](CCN(C)C)CSc4ccccc4)c([N+](=O)[O-])c3)cc2)CC1 assay_result=300

## Task Look up IC50 for this compound: CN(C)CC[C@H](CSc1ccccc1)Nc1ccc(S(=O)(=O)NC(=O)c2ccc(N3CCN(Cc4ccccc4C4CCCCC4)CC3)cc2)cc1[N+](=O)[O-]
## Result 61
